TGI values for the molecules below.
# System: SK-MEL-2 melanoma
# Protocol text: NCI tumour cell line growth inhibition, 48 h

Please review the following examples before continuing.
[
  {
    "Molecule": "C=CCC(N[C@@H](CO)c1ccccc1)c1cn(C(=O)OCC)c2ccccc12 (some centres undefined)",
    "TGI": "> 100 µM"
  },
  {
    "Molecule": "CN(C)N1C(=O)S/C(=C\\c2ccc([N+](=O)[O-])cc2)C1=O",
    "TGI": "> 100 µM"
  },
  {
    "Molecule": "CC(=O)OCC(=O)OC[C@H](OCc1ccccc1)[C@@H]1[C@H](OC(C)=O)C(=O)N1Cc1ccccc1",
    "TGI": "> 100 µM"
  }
]

Entry Cc1cccc(C)c1N1C(=O)C(=O)C(c2nc3ccccc3s2)/C(=N\N)C1=O (centres undefined) , TGI reported as > 100 µM

---

# Tested on: HT29 colon
# Protocol text: NCI tumour cell line growth inhibition, 48 h
Readout kind: TGI (µM)
Could you give me the number in µM? Just the number is fine.

Illustrative cases are given below, each with its answer.
[
  {
    "Compound": "[B-][P+](CC[P+]1([B-])[C@@H](C)[C@@H](O)[C@H](O)[C@@H]1C)(c1ccccc1)c1ccccc1OC (some centres undefined)",
    "Readout units": "µM",
    "Value observed": 40.6
  },
  {
    "Compound": "CCCCCCCCCC[C@H](O)[C@H](O)CC[C@@H](O)[C@H]1CC[C@@H]([C@H]2CC[C@H](CCCCCCC[C@@H](O)CC3=C[C@H](C)OC3=O)O2)O1",
    "Readout units": "µM",
    "Value observed": 5.64
  },
  {
    "Compound": "CCCCCCCCCCCCOC1C(CNC(=O)C2OC3OC(C)(C)OC3C2NC(=O)CN2CCN(c3ccc(OC)cc3)CC2)OC2OC(C)(C)OC21 (centres undefined)",
    "Readout units": "µM",
    "Value observed": 5.12
  }
]

Reported TGI of COC1(OC)C2(Cl)C(Cl)=C(Cl)C1(Cl)C1C2C2CC1(C(=O)O)c1ccccc12 (centres undefined) : 76.3

Consider CCNC(=O)Oc1ccc(/C(=C(/C)Cc2ccc(OC)cc2)c2ccc(OCCN(CC)CC)cc2)cc1 . Its measured TGI is 3.96

// CCCCCC/C=C\CCCCCCCCCC1=C(CN2CCN(C)CC2)C(=O)C=C(OC)C1=O : TGI value = 23.9

The recorded TGI for c1ccc(CNCCN(CCNCc2ccccn2)Cc2ccc3ccccc3c2)nc1 is 7.93

Query Nc1c(Cl)ncnc1NCCCCCCCCCCCCNc1ncnc(Cl)c1N yields TGI of 49.8

---

# System: MALME-3M melanoma
# Protocol text: NCI tumour cell line growth inhibition, 48 h; in the data active means GI50 below about 0.43 µM; inactive means the rest
Select the matching outcome among active, inactive

-- ask Name the outcome recorded for O=C1c2ccccc2-c2c1c1ccccc1c(=O)n2CCCNCCn1c2c(c3ccccc3c1=O)C(=O)c1ccccc1-2 in the assay.
-- reply inactive

-- ask Recorded test call requested for C=CCC(N[C@@H](CO)c1ccccc1)c1cn(C(=O)OCC)c2ccccc12 (some centres undefined)
-- reply inactive

-- ask What did the test return for CC(=O)C1=C(O)C=C2Oc3c(C(=O)/C=C/c4cc(Cl)cc(Cl)c4)c(O)c(C)c(O)c3[C@]2(C)C1=O ?
-- reply active

-- ask Per the records of this test, what outcome belongs to CC(C)COc1nc2c(c(=O)n(C)c(=O)n2C)n1C ?
-- reply inactive

---

# Tested on: UACC-62 melanoma
# Protocol text: NCI tumour cell line growth inhibition, 48 h
Each record here notes measured TGI.

The cases that follow already have their TGI on record.
[
  {
    "Compound": "CCOC(=O)/C(=N/Nc1ccccc1)N1C(=S)C=C(C)NN(C)C1=S",
    "Value observed": "> 100 µM"
  },
  {
    "Compound": "CNS(=O)(=O)NNS(=O)(=O)c1ccc(OC)cc1",
    "Value observed": "> 100 µM"
  }
]

Let us move to another entry and its TGI.
Data point: COC(=O)[C@@]12CC(C(C)C)[C@H]3CC(C(=O)C=C1OC)[C@H]32 (stereo partly drawn) ; TGI = > 100 µM

---

# Tested on: SNB-75 CNS
# Protocol text: NCI tumour cell line growth inhibition, 48 h
Readout kind: TGI

// below: answered molecules
[
  {
    "Molecule": "COc1ccc(OC)c(/C=N/N=C(\\N)NO)c1",
    "Value observed": "> 100 µM"
  },
  {
    "Molecule": "CC(=O)OCC(=O)OC[C@H](OCc1ccccc1)[C@@H]1[C@H](OC(C)=O)C(=O)N1Cc1ccccc1",
    "Value observed": "> 100 µM"
  },
  {
    "Molecule": "CCOc1ccccc1N=Nc1c(-c2ccccc2)nn(C(=O)CC(=O)Nc2cccc(C)c2)c1-c1ccccc1",
    "Value observed": "> 100 µM"
  },
  {
    "Molecule": "CCCCCCCCCOCC(COP(=O)([O-])OCC[N+](C)(C)C)OC (stereo not given)",
    "Value observed": "> 100 µM"
  }
]

The record that follows has no TGI shown yet.
The value of TGI recorded for CC(C)(Cl)C(Br)CCC(Br)(CCl)C(Cl)CBr (stereo not given) when tested on SNB-75 CNS reads > 10 µM

---

# System: UACC-62 melanoma
# Protocol text: NCI tumour cell line growth inhibition, 48 h
Readout kind: TGI

As a guide, the following entries are already answered.
[
  {
    "Compound": "OC(CN(CCCl)CCCl)C(O)C(O)C(O)CN(CCCl)CCCl (stereo not drawn)",
    "Value observed": "> 100 µM"
  },
  {
    "Compound": "O=C1c2ccccc2C2CCC1c1ccccc12 (stereo not drawn)",
    "Value observed": "> 100 µM"
  }
]

Now let's try a different one.
Reported TGI for COc1ccc(S(=O)(=O)N(CC(=O)O)c2ccccc2)cc1 was > 100 µM

---

# System: SK-MEL-5 melanoma
# Protocol text: NCI tumour cell line growth inhibition, 48 h
Attribute: TGI

[
  {
    "Compound": "O=C(CSCC(=O)N/N=C\\c1cccc([N+](=O)[O-])c1)N/N=C\\c1cccc([N+](=O)[O-])c1",
    "TGI": "> 100 µM"
  }
]

Documented TGI of C=CCc1c(O)c2nsnc2c2nsnc12 : > 10 µM

Lab note: CCCCCc1c(CCCC)c(=O)[nH]c2nc(NC(=O)CCCC)ccc12 gave TGI of > 100 µM

Sample CC(=O)NCC1OC2COC(c3ccccc3)OC2C(NC(=O)c2ccccc2)C1OC(=O)c1ccccc1 (stereo not given) ; TGI observed: > 100 µM

Form field TGI, entry CC(=O)NNc1nc(C)c(C(/C=C/c2ccccc2O)=N/N=C(N)N)s1 : > 100 µM

For CCC1(c2ccc(N3C(=O)c4cc(OC)c(OC)cc4C3=O)cc2)CCC(=O)NC1=O (stereo not given) the compound record lists TGI as > 10 µM

Short answer for CC(=O)[CH-]C(=O)c1ccccc1.CC(=O)[CH-]C(=O)c1ccccc1.CC(=O)[CH-]C(=O)c1ccccc1.[Nd+3].[OH3+] : TGI was > 100 µM

Entry Cn1c2ccccc2c(=O)c2c(O)cc3c(c21)C=CC(C)(C)O3 , TGI reported as > 25 µM

Just so you know, measured TGI for Nc1ncnc2c1ncn2C1CCC(CP(=O)(O)O)C1 (stereo not given) came out at > 100 µM

// field: TGI; key: CN(C)N1C(=O)S/C(=C\c2ccc([N+](=O)[O-])cc2)C1=O ; value = > 100 µM

---

log10 TGI listing for selected compounds.
# Tested on: SF-539 CNS
# Protocol text: NCI tumour cell line growth inhibition, 48 h
Scale: log10; quantity: TGI; unit before log: µM

[
  {
    "Smiles text": "Cc1c(N=C/C=C/c2ccccc2)c(=O)n(-c2ccccc2)n1C",
    "log10 TGI": 1.81
  },
  {
    "Smiles text": "O=C1C=CC(=O)c2c(O)c3c(c(O)c21)C[C@H](O)[C@H](O)[C@@H]3O",
    "log10 TGI": 0.96
  },
  {
    "Smiles text": "c1ccc(CNCCN(CCNCc2ccccn2)Cc2ccc3ccccc3c2)nc1",
    "log10 TGI": 0.49
  }
]

The compound listed as Cc1cc(Nc2nc(N[C@@H](C)c3ncc(F)cn3)ncc2Cl)n[nH]1 shows log10 TGI equal to 1.76

Reported log10 TGI ( Cc1cc(C)c(-c2noc(-c3ccc(Cl)cc3)c2C2=NCCCN2)c(C)c1 ) = 1.48

// recorded log10 TGI for O=C(CSCC(=O)N/N=C\c1cccc([N+](=O)[O-])c1)N/N=C\c1cccc([N+](=O)[O-])c1 : 1.93

Data provenance: PubChem BioAssay (NCI)
